# System: cyclin D1
# assay_comment: Western blot analysis of cyclin D1 expression in TSPC
# Format: cell-based, rabbit
# recorded_conditions: TSPC treated 24 h; compared with solvent-treated cells; normalized to β-actin
observed_property: induction of the cyclin D1 protein (fold)

>>> recorded_value("H105A: 29-mer variant with single alanine alteration at residue 105 (SLGAEQRTESIIARALYYDLISSPDIHGT; UniProt P36955 93-121, looked up, variant H105A)")
2.7
>>> recorded_value("R106A: 29-mer variant with single alanine replacement at arginine-106 (SLGAEQRTESIIHAALYYDLISSPDIHGT; UniProt P36955 93-121, looked up, variant R106A)")
1.0
>>> recorded_value("A96G: 29-mer variant with single glycine alteration at alanine-96 (SLGGEQRTESIIHRALYYDLISSPDIHGT; UniProt P36955 93-121, looked up, variant A96G)")
1.5

The origin of these recorded values is patent US20210244791A1.
